# IC50 listing for each entry below
- Subject Of Test: 5-lipoxygenase (Rattus norvegicus, UniProt P12527)
- Construct: endogenous in cells; host or cells: RBL-1 cells (rat basophilic leukemia)
- Sequence (P12527 whole entry): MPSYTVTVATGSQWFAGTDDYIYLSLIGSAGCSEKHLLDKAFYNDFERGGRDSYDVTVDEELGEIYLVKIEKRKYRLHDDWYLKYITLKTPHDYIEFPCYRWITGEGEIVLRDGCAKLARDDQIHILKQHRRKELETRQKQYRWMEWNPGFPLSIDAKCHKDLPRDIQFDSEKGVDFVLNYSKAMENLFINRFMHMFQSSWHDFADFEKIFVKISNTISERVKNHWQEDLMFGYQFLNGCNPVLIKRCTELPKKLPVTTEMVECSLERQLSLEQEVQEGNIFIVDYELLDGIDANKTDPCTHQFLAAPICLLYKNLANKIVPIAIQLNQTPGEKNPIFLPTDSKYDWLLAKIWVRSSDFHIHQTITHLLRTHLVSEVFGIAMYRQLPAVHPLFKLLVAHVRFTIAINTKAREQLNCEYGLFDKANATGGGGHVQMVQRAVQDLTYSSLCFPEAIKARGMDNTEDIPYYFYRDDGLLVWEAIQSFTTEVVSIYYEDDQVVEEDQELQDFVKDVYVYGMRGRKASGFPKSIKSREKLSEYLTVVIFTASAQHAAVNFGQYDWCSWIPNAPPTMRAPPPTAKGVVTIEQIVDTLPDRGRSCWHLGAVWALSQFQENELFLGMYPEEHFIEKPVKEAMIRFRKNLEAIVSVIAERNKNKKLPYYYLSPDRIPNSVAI
- Protocol: Inhibition of 5-lipoxygenase in RBL-1-cells
- Assay type: cell-based
- Condition Summary: 20 μM [14C]-arachidonic acid, 20 μM calcium ionophore A 23 187, 10 minutes
Entry rule: numbers only, all in µM.

In the examples that follow, each entry is paired with its recorded IC50.
CCOC(C#Cc1ccc(OC)c(OC)c1)c1ccc(CN(O)C(C)=O)cc1 (centres unmarked) = 5
CC(=O)N(O)Cc1ccc(C(O)C#Cc2ccsc2)cc1 (centres unmarked) = 5

Q) Give its IC50 value. Item: NC(=O)N(O)Cc1ccc(C(O)C#Cc2cccc(Cl)c2)cc1 (centres unmarked)
A) 4

Q) Subsequent entry: NC(=O)N(O)Cc1ccc(C(O)C#Cc2ccccc2)cc1 (centres unmarked)
A) 7

Q) Same lookup for NC(=O)N(O)Cc1ccc(C(O)C#Cc2cccs2)cc1 (centres unmarked) , please.
A) 3
